All figures here come from patent US20240148821A1.

# measured_target: protein-protein interaction between Kras and SOS1 (biotin-tagged human Kras loaded with GDP, His-tagged human SOS1) (Homo sapiens (Human), UniProt P01116, G12D)
# protocol_details: Protein-protein interaction inhibition between Kras and SOS1 (KrasG12D-SOS PPI) using AlphaScreen
# Format: biochemical
# experimental_setup: AlphaScreen; biotin-tagged human Kras loaded with GDP, His-tagged human SOS1; read-out: KRAS G12D-SOS PPI IC50
Bridge positions count the residues as written; N and C are the ends. Square brackets hold non-standard residues; d marks the D form. Peptide text beside a SMILES is read from it. * marks the point of attachment. hPhe(3-Cl-4-CF3) = N[C@@H](CCc1ccc(C(F)(F)F)c(Cl)c1)C(=O)O; NMeGly(cPent) = CN[C@H](C(=O)O)C1CCCC1; NMeCha = CN[C@@H](CC1CCCCC1)C(=O)O; NMehLeu = CN[C@@H](CCC(C)C)C(=O)O; NMeD = CN[C@@H](CC(=O)O)C(=O)O; NMeL = CN[C@@H](CC(C)C)C(=O)O; d(β3hA) = C[C@@H](N)CC(=O)O; Morpholide = C1CN(*)CCO1; Ac5c = NC1(C(=O)O)CCCC1; Aze = O=C(O)[C@@H]1CCN1; Sar = CNCC(=O)O
measured_metric: IC50 (nM)
Field: numeric (nM). Do not append units.

CC[C@H](C)[C@@H]1NC(=O)[C@H](CC(C)C)N(C)C(=O)C[C@@H](C)NC(=O)[C@H](C2CCCC2)N(C)C(=O)C2(CCCC2)NC(=O)[C@@H]2CCCN2C(=O)[C@H](CCc2ccc(C(F)(F)F)c(Cl)c2)NC(=O)CN(C)C(=O)[C@H](CC2CCCCC2)N(C)C(=O)[C@@H]2CCN2C(=O)CN(C)C1=O [Compound 1499] (cyclo([Ac5c][NMeGly(cPent)][d(β3hA)][NMeL]I[Sar][Aze][NMeCha][Sar][hPhe(3-Cl-4-CF3)]P)); 19

## Task Request the reported IC50 associated with CC[C@H](C)[C@@H]1NC(=O)[C@H](CCC(C)C)N(C)C(=O)C[C@@H](C(=O)N2CCOCC2)N(C)C(=O)[C@H](C2CCCC2)N(C)C(=O)C2(CCCC2)NC(=O)[C@@H]2CCCN2C(=O)[C@H](CCc2ccc(C(F)(F)F)c(Cl)c2)NC(=O)CN(C)C(=O)[C@H](CC2CCCCC2)N(C)C(=O)[C@@H]2CCN2C(=O)[C@H](C)NC1=O [Compound 1171] ([NMehLeu]IA[Aze][NMeCha][Sar][hPhe(3-Cl-4-CF3)]P[Ac5c][NMeGly(cPent)][NMeD]-Morpholide; lactam N-11)
## Result 0.99

* * *

pIC50 values, listed per item
# measured_target: protein-protein interaction between Kras and SOS1 (biotin-tagged human Kras loaded with GDP, His-tagged human SOS1) (Homo sapiens (Human), UniProt P01116, G12D)
# protocol_details: Protein-protein interaction inhibition between Kras and SOS1 (KrasG12D-SOS PPI) using AlphaScreen
# Assay type: biochemical
Numbered stars: 1 amine (or outer) side, 2 acyl side, 3 side chain; on linkers, the order of the positions; unused ones are H or OH. Bridge positions count the residues as written; N and C are the ends. Square brackets hold non-standard residues; d marks the D form. Peptide text beside a SMILES is read from it. * marks the point of attachment. hPhe(3-Cl-4-CF3) = N[C@@H](CCc1ccc(C(F)(F)F)c(Cl)c1)C(=O)O; NMePhe(4-Me) = CN[C@@H](Cc1ccc(C)cc1)C(=O)O; X119 = CN(C)C(=O)CCCN(CC(=O)[*:2])[*:1]; NMeGly(cPent) = CN[C@H](C(=O)O)C1CCCC1; Phe(3-I) = N[C@@H](Cc1cccc(I)c1)C(=O)O; NMeCha = CN[C@@H](CC1CCCCC1)C(=O)O; NMeChg = CN[C@H](C(=O)O)C1CCCCC1; NMeD = CN[C@@H](CC(=O)O)C(=O)O; NMeL = CN[C@@H](CC(C)C)C(=O)O; Morpholide = C1CN(*)CCO1; NMeA = CN[C@@H](C)C(=O)O; NMeAib = CNC(C)(C)C(=O)O; Piperidide = C1CCN(*)CC1; Pyrrolidide = C1CCN(*)C1; Ac5c = NC1(C(=O)O)CCCC1; Aze = O=C(O)[C@@H]1CCN1; X80 = FC1(F)CCCN(*)C1; Sar = CNCC(=O)O
When answering, recall that pIC50 equals minus log10 of the concentration in mol/L, and write that number alone.

Some solved cases for reference:
CC[C@H](C)[C@@H]1NC(=O)[C@H](CC(C)C)N(C)C(=O)C[C@@H](C(=O)N2CCCCC2)N(C)C(=O)[C@H](C2CCCCC2)N(C)C(=O)C2(CCCC2)NC(=O)CN(CCCC(=O)N(C)C)C(=O)[C@H](CCc2ccc(C(F)(F)F)c(Cl)c2)NC(=O)CN(C)C(=O)[C@H](CC2CCCCC2)N(C)C(=O)CN(C)C(=O)CN(C)C1=O [Compound 2052] ([NMeL]I[Sar][Sar][NMeCha][Sar][hPhe(3-Cl-4-CF3)][X119][Ac5c][NMeChg][NMeD]-Piperidide; lactam N-11); 8.31
CC[C@H](C)[C@@H]1NC(=O)[C@H](CC(C)C)N(C)C(=O)C[C@@H](C(=O)N(C)C)N(C)C(=O)[C@H](C2CCCC2)N(C)C(=O)C2(CCCC2)NC(=O)[C@H](CC(=O)N2CCOCC2)N(C)C(=O)[C@H](CCc2ccc(C(F)(F)F)c(Cl)c2)NC(=O)CN(C)C(=O)[C@H](CC2CCCCC2)N(C)C(=O)[C@@H]2CCN2C(=O)[C@H](C)N(C)C1=O [Compound 2109] ([NMeL]I[NMeA][Aze][NMeCha][Sar][hPhe(3-Cl-4-CF3)][NMeD](Morpholide)[Ac5c][NMeGly(cPent)][NMeD]-NMe2; lactam N-11); 8.74
CC[C@H](C)[C@@H]1NC(=O)[C@H](CC(C)C)N(C)C(=O)C[C@@H](C(=O)N(C)C)N(C)C(=O)[C@H](C2CCCC2)N(C)C(=O)C2(CCCC2)NC(=O)[C@H](CC(=O)N2CCCCC2)N(C)C(=O)[C@H](CCc2ccc(C(F)(F)F)c(Cl)c2)NC(=O)CN(C)C(=O)[C@H](CC2CCCCC2)N(C)C(=O)[C@@H]2CCN2C(=O)[C@H](C)N(C)C1=O [Compound 2105] ([NMeL]I[NMeA][Aze][NMeCha][Sar][hPhe(3-Cl-4-CF3)][NMeD](Piperidide)[Ac5c][NMeGly(cPent)][NMeD]-NMe2; lactam N-11); 8.59
CC[C@H](C)[C@@H]1NC(=O)[C@H](CC(C)C)N(C)C(=O)C[C@@H](C(=O)N(C)C)N(C)C(=O)[C@H](C2CCCC2)N(C)C(=O)C2(CCCC2)NC(=O)[C@H](CC(=O)N2CCCC2)N(C)C(=O)[C@H](CCc2ccc(C(F)(F)F)c(Cl)c2)NC(=O)CN(C)C(=O)[C@H](CC2CCCCC2)N(C)C(=O)[C@@H]2CCN2C(=O)[C@H](C)N(C)C1=O [Compound 2097] ([NMeL]I[NMeA][Aze][NMeCha][Sar][hPhe(3-Cl-4-CF3)][NMeD](Pyrrolidide)[Ac5c][NMeGly(cPent)][NMeD]-NMe2; lactam N-11); 9.24

## Task Request the reported pIC50 associated with CC[C@H](C)[C@@H]1NC(=O)[C@H](CC(C)C)N(C)C(=O)C[C@@H](C(=O)N2CCCC(F)(F)C2)N(C)C(=O)[C@H](CC(C)C)NC(=O)C(C)(C)N(C)C(=O)[C@H](Cc2ccc(OC)cc2)NC(=O)[C@H](Cc2cccc(I)c2)NC(=O)CN(C)C(=O)[C@H](Cc2ccc(C)cc2)N(C)C(=O)CN(C)C(=O)CN(C)C1=O [Compound 2099] ([NMeL]I[Sar][Sar][NMePhe(4-Me)][Sar][Phe(3-I)]Y(Me)[NMeAib]L[NMeD]-X80; lactam N-11)
## Result 7.60

* * *

# measured_target: protein-protein interaction between Kras and SOS1 (biotin-tagged human Kras loaded with GDP, His-tagged human SOS1) (Homo sapiens (Human), UniProt P01116, G12D)
# protocol_details: Protein-protein interaction inhibition between Kras and SOS1 (KrasG12D-SOS PPI) using AlphaScreen;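 also: kras produced in E. coli, Ni-coupled donor beads and streptavidin acceptor beads, excitation 680 nm with emission detected at 520–620 nm via singlet oxygen transfer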
# Type: biochemical
# experimental_setup: AlphaScreen; biotin-tagged human Kras loaded with GDP, His-tagged human SOS1; read-out: KRAS G12D-SOS PPI IC50
Bridge positions count the residues as written; N and C are the ends. Square brackets hold non-standard residues; d marks the D form. Peptide text beside a SMILES is read from it. * marks the point of attachment. hPhe(3-Cl-4-CF3) = N[C@@H](CCc1ccc(C(F)(F)F)c(Cl)c1)C(=O)O; NMeAla(cPent) = CN[C@@H](CC1CCCC1)C(=O)O; NMeCha = CN[C@@H](CC1CCCCC1)C(=O)O; Hyp = O=C(O)[C@@H]1C[C@@H](O)CN1; NMeChg = CN[C@H](C(=O)O)C1CCCCC1; NMeD = CN[C@@H](CC(=O)O)C(=O)O; NMeL = CN[C@@H](CC(C)C)C(=O)O; NMeV = CN[C@H](C(=O)O)C(C)C; d(β3hA) = C[C@@H](N)CC(=O)O; NMeA = CN[C@@H](C)C(=O)O; Pyrrolidide = C1CCN(*)C1; Ac5c = NC1(C(=O)O)CCCC1; Aze = O=C(O)[C@@H]1CCN1; Sar = CNCC(=O)O
measured_metric: pIC50
When answering, recall that pIC50 equals minus log10 of the concentration in mol/L, and write that number alone.

CC[C@H](C)[C@@H]1NC(=O)[C@H](CC2CCCC2)N(C)C(=O)C[C@@H](C)NC(=O)[C@H](C(C)C)N(C)C(=O)C2(CCCC2)NC(=O)[C@@H]2CCCN2C(=O)[C@H](CCc2ccc(C(F)(F)F)c(Cl)c2)NC(=O)CN(C)C(=O)[C@H](CC2CCCCC2)N(C)C(=O)[C@@H]2CCN2C(=O)[C@H](C)N(C)C1=O [Compound 8] (cyclo([Ac5c][NMeV][d(β3hA)][NMeAla(cPent)]I[NMeA][Aze][NMeCha][Sar][hPhe(3-Cl-4-CF3)]P)); 7.12
CC[C@H](C)[C@@H]1NC(=O)[C@H](C2CCCCC2)N(C)C(=O)C[C@@H](C)NC(=O)[C@H](C(C)C)N(C)C(=O)C2(CCCC2)NC(=O)[C@@H]2CCCN2C(=O)[C@H](CCc2ccc(C(F)(F)F)c(Cl)c2)NC(=O)CN(C)C(=O)[C@H](CC2CCCCC2)N(C)C(=O)[C@@H]2CCN2C(=O)[C@H](C)N(C)C1=O [Compound 873] (cyclo([Ac5c][NMeV][d(β3hA)][NMeChg]I[NMeA][Aze][NMeCha][Sar][hPhe(3-Cl-4-CF3)]P)); 7.29

Below: the item to evaluate.
## Task Request the reported pIC50 associated with CCO[C@@H]1C[C@H]2C(=O)NC3(CCCC3)C(=O)N(C)[C@@H](CC(C)C)C(=O)N(C)[C@H](C(=O)N3CCCC3)CC(=O)N(C)[C@@H](CC(C)C)C(=O)N[C@@H]([C@@H](C)CC)C(=O)N(C)CC(=O)N(C)CC(=O)N(C)[C@@H](CC3CCCCC3)C(=O)N(C)CC(=O)N[C@@H](CCc3ccc(C(F)(F)F)c(Cl)c3)C(=O)N2C1 [Compound 1748] ([NMeL]I[Sar][Sar][NMeCha][Sar][hPhe(3-Cl-4-CF3)][Hyp](Et)[Ac5c][NMeL][NMeD]-Pyrrolidide; lactam N-11)
## Result 9.21
